Provenance of the data: patent US8673360B2

# Protocol Text: Intranasal administration of tropisetron in cynomolgus monkeys: plasma tropisetron by HPLC, against intravenous injection
# Format: in vivo
# Assay Conditions: male, cynomolgus monkey, plasma, other: intranasal; nasal, 4 mg/body (0.59 mg/kg); compared with intravenous injection; read-out: BA (bioavailability) of tropisetron

>  <Compound>
CN1[C@@H]2CC[C@H]1C[C@@H](OC(=O)c1c[nH]c3ccccc13)C2 [tropisetron]

>  <Readout Units>
%

>  <bioavailability>
73.4

$$$$

----------
# Protocol Text: Intranasal administration of oxycodone in cynomolgus monkeys: plasma oxycodone by HPLC, against subcutaneous injection
# Assay Conditions: male, cynomolgus, cynomolgus monkey, plasma, other: intranasal, […]

>  <Compound>
COc1ccc2c3c1O[C@H]1C(=O)CC[C@@]4(O)[C@@H](C2)N(C)CC[C@]314 [oxycodone]

>  <bioavailability, %>
71.7

$$$$
